Reference source for all entries: ChEMBL document CHEMBL1201862

- Tested on: KM12
- method: NCI tumour cell line growth inhibition, 48 h
Calls of active or inactive are those of the source. Rule as the data show it: active = GI50 up to about 1.1 µM and inactive = higher.
measuredAttribute: GI50

> print(dat)
                                   compound          resultvalue
1  CC(C)(C)c1cc(Oc2ccc(C#N)c(C#N)c2)cc(C(C)(C)C)c1  > 100 µM (inactive)
2  O=[N+]([O-])/C(C(Cl)=C(Cl)Cl)=C(\N1CCCCC1)n1cncn1   19.5 µM (inactive)
3  C=C1CCCC(C)(C)[C@@H]1CC/C(C)=C/Cn1c2cccc(=O)c-2nc2ccccc21   2.81 µM (inactive)
4  Cc1ccc(S(=O)(=O)c2c(O)c3ccccc3n(C)c2=O)cc1  > 100 µM (inactive)
5  CSc1nc(C)c(Br)c(=O)n1C1OC(COC(C)=O)C(OC(C)=O)C(OC(C)=O)C1OC(C)=O (stereo not given)  > 100 µM (inactive)

###

As shown below, each of these compounds has a reported GI50 value.
- Tested on: UACC-62
- method: NCI tumour cell line growth inhibition, 48 h
Activity calls are given as the source filed them. No stated cut-off is given here; in the data, active = GI50 up to about 1.1 µM and inactive = higher.
measuredAttribute: GI50

compound	measuredTarget	resultValue
COc1ccc(C2=C(N)c3ncccc3C2=O)cc1	UACC-62	60.8 µM (inactive)
C=CCNC(=O)NC(=O)CSC1=NC(=O)C2(NN1)c1ccccc1-c1ccccc12	UACC-62	> 10 µM (inactive)
CCOC(=O)C(NC(=O)c1ccccc1)(Nc1ccc(S(=O)(=O)Nc2cc(C)on2)cc1)C(F)(F)F (configuration not stated)	UACC-62	> 100 µM (inactive)
COc1ccc(-c2cc(Cc3cccs3)c(=O)[nH]n2)cc1	UACC-62	56.9 µM (inactive)
CCc1ccc(Nc2cc(=O)n(C)c(SCc3ccccc3)n2)cc1	UACC-62	> 100 µM (inactive)
CN(C)CCNC(=O)c1cccc2nc3c(ccc4ccccc43)nc12	UACC-62	2.45 µM (inactive)
COc1c2c(cc3c1OCO3)C13C=CC(OC)CC1N(CC3)C2.[O-][Cl+3]([O-])([O-])O (configuration not stated)	UACC-62	> 100 µM (inactive)
O=C(Cn1ccnc1[N+](=O)[O-])NCc1ccc(F)cc1	UACC-62	> 100 µM (inactive)
O=C1Nc2ccccc2N/C1=C\C(=O)c1ccccc1O	UACC-62	> 100 µM (inactive)
CC(C)C(NC(=O)C(Cc1ccccc1)NC(=O)[C@H]1CCC[C@H]1NC(=O)C(Cc1ccc(OC(C)(C)C)cc1)NC(=O)OC(C)(C)C)C(N)=O (some centres not stated)	UACC-62	13.8 µM (inactive)
CC(=O)O[C@H]1C(=O)[C@@]2(C)[C@H]([C@H](OC(=O)c3ccc([N+](=O)[O-])cc3)[C@]3(O)C[C@H](OC(=O)[C@H](O)[C@@H](NC(=O)c4ccccc4)c4ccccc4)C(C)=C1C3(C)C)[C@]1(OC(C)=O)CO[C@@H]1C[C@@H]2O	UACC-62	> 25 µM (inactive)
O=c1c2cccc3cccc(c4oc5c6cccc7cccc(c(=O)c5c14)c76)c32	UACC-62	12.8 µM (inactive)
CC(=O)NC1C(OCc2ccccc2)OC(CO)C(O)C1OCC(=O)N[C@@H](C)C(=O)N[C@H](CCC(=O)NCCCCNc1c2ccccc2nc2cccc([N+](=O)[O-])c12)C(N)=O (some centres not stated)	UACC-62	1.51 µM (inactive)
Cc1cc(C)nc(NS(=O)(=O)c2ccc(Nc3c4ccccc4nc4c(C(=O)N5CCN(CCOS(C)(=O)=O)CC5)ccc(Cl)c34)cc2)n1	UACC-62	> 100 µM (inactive)
COc1ccc2c(c1)-c1nc(=S)n(CCN(C)C)c3ccc([N+](=O)[O-])c(c13)N2	UACC-62	10.6 µM (inactive)
Oc1ccc[n+](Cc2ccccc2)c1	UACC-62	> 100 µM (inactive)
O=C(Nc1noc(-c2ccccc2)n1)c1ccccc1CNc1noc(-c2ccccc2)n1	UACC-62	> 100 µM (inactive)

###

- Tested on: DLD-1
- method: NCI tumour cell line growth inhibition, 48 h
Active and inactive are the calls of the source. Cut-off read from the data, not from the text of the source: active = GI50 up to about 1.1 µM and inactive = higher.
As shown below, each of these compounds has a reported GI50 value.
measuredAttribute: GI50

> print(dat)
                                   compound  measuredtarget           resultvalue
1  O=C1C2C3C=CC(C2C(=O)N1CN1CCSCC1)C1C2C(=O)N(CN4CCSCC4)C(=O)C2C31 (stereo not given)           DLD-1  > 51.4 µM (inactive)
2  CCN(CC)CCCC(C)Nc1ccnc2ccc3nn(C)nc3c12 (stereo not given)           DLD-1      55 µM (inactive)
3              CCCCCCCCCCCCCCCCNCCCN(C)CCCN           DLD-1    16.8 µM (inactive)
4  C/C(=N\NS(=O)(=O)c1ccc(C)cc1)C(CN1CCOCC1)C(c1ccccc1)c1c(O)c2ccccc2oc1=O (stereo not given)           DLD-1   > 100 µM (inactive)
5  Cc1ccc(-c2cc(=O)c3cc(C)c(C)c(C(=O)O)c3o2)cc1N           DLD-1   > 100 µM (inactive)

###

- Test system: RPMI-8226
- method: NCI tumour cell line growth inhibition, 48 h
Calls of active or inactive are those of the source. Rule as the data show it: active = GI50 up to about 1.1 µM and inactive = higher.
Labels: Y for active, N for inactive

> print(dat)
                                    molecule  categorylabel
 1                        CN(C)C1(C(=O)O)CC1              N
 2  C=CC(=O)Nc1ccccc1CC(c1c[nH]c2ccccc12)c1c[nH]c2ccccc12              N
 3  O=C1C(Cl)N(c2c(Cl)cccc2Cl)C1c1c[nH]c2ccccc12 (configuration not stated)              N
 4  CNC(C)C(O)c1ccc2oc3cc(=O)c4ccccc4c-3nc2c1 (configuration not stated)              N
 5  CCOC(=O)C(C(=O)OCC)=C1C=C(c2ccccc2)c2ccccc21              N
 6  CC1=NN(c2cccc(Cl)c2)C(=N/c2nc3ccccc3s2)/C1=C\c1ccc(Cl)cc1              N
 7             Cc1c2ccccc2c(C)n2c1nc1ccccc12              N
 8  OC12c3ccccc3C1CCCCC2N1CCCC1 (configuration not stated)              N
 9     CC[P+](C#Cc1ccccc1)(c1ccccc1)c1ccccc1              Y
10  Cn1c2c(c3ccccc31)C1CCCCC1C1C(=O)NC(=O)C21 (configuration not stated)              N
11  CSc1ncc2c(n1)-c1ccccc1OC2N1CCOCC1 (configuration not stated)              N
12  N#CCN(Cc1ccccc1)[C@@H]1CCC[C@]1(O)C#Cc1ccc2c(c1)OCO2              N

###

- Tested on: Hs-578T
- method: NCI tumour cell line growth inhibition, 48 h
Activity calls are given as the source filed them. Rule as the data show it: active = GI50 up to about 1.1 µM and inactive = higher.
Labels: 1 (yes) (active), 0 (no) (inactive)

compound	categoryLabel
Cc1cc(NC(=O)NC(=O)c2ccccc2NC(=O)CN)ccc1Oc1ncc(Br)cn1	1 (yes)
CN(C(=O)OC(C)(C)C)[C@H]1CCCC[C@H]1N1CCCC1	0 (no)
Cc1[nH]c2ncn3[nH]c(=S)nc3c2c1Cc1ccccc1	0 (no)
Cc1ccc2c(=O)c(-c3nnc(N)s3)c[nH]c2n1	0 (no)
CN(C)C1(C(=O)O)CC1	0 (no)
CC(=O)OC1CC(O)CC2=CCC3C4CCC(C(C)(O)C(O)CC5COC(=O)C5C)C4(C)CCC3C21C (stereo not given)	0 (no)
CCCCOC(=O)NC(c1ccccc1)C(O)C(=O)OC1C[C@@]2(O)C(OC(=O)c3ccccc3)C3[C@](C)(C(=O)[C@H](OC(C)=O)C(=C1C)C2(C)C)[C@@H](O)C[C@H]1OC[C@@]31OC(C)=O (stereo not given in full)	1 (yes)
C[N+]1(CCCl)CC[N+](C)(CCCl)CC1 (stereo not given)	0 (no)
CC(C)(C)OC(=O)NC(Cc1ccc(OCc2ccccc2)cn1)C(=O)O (stereo not given)	0 (no)
Cc1c(-c2ccccc2)c(-c2ccc(OCCN(C)C)cc2)n2ccccc12	0 (no)

###

- Tested on: OVCAR-8
- method: NCI tumour cell line growth inhibition, 48 h
Calls of active or inactive are those of the source. Cut-off read from the data, not from the text of the source: active = GI50 up to about 1.1 µM and inactive = higher.
Labels: true (1) = active, false (0) = inactive

> print(dat)
                                    molecule  categorylabel
 1  N#CCCN(CCC#N)c1ccc(C(=N/c2ccc(F)cc2)/N=N/c2ccccc2)cc1      false (0)
 2  O=C1C2C3C=CC(C2C(=O)N1CN1CCSCC1)C1C2C(=O)N(CN4CCSCC4)C(=O)C2C31 (configuration not stated)      false (0)
 3  O=C(Nc1ccc(Cl)c(Cl)c1)C(=O)Nn1c(S)nc2ccccc2c1=O      false (0)
 4                       Oc1cccc2c(Cl)ccnc12       true (1)
 5  CNc1nc2n(CCO)c(-c3ccccc3)c(-c3ccccc3)nc-2c(=O)n1      false (0)
 6          Cc1ccc2nc(-c3ccc(N)c(Br)c3)sc2c1      false (0)
 7  CC(C)CC1c2[nH]c3ccccc3c2C[C@H]2C(=O)NC(Cc3c[nH]c4ccccc34)C(=O)N12 (some centres not stated)      false (0)
 8            N#[N+]c1cc2c(cc1Br)-c1ccccc1C2      false (0)
 9  O=c1c2cccc3cccc(c4oc5c6cccc7cccc(c(=O)c5c14)c76)c32      false (0)
10   Cn1ccc(C(=O)N2CCSC2=S)c(OCc2ccccc2)c1=O      false (0)
11  Cc1cc(NC(=O)NC(=O)c2ccccc2NC(=O)CN)ccc1Oc1ncc(Br)cn1      false (0)
12            C/N=C/N(C)c1c2ccccc2nc2ccccc12      false (0)
13  Cc1nc(O)nc2nc3ccc(Cl)cc3c(NC(C)(CO)CO)c12      false (0)
14  Cn1cc(S(=O)(=O)NC(=O)Nc2ccc(Cl)cc2)c(=O)c2ccc(Cl)cc21      false (0)
15           CCOC(=O)CCc1cn2cc(Br)nc(OC)c2n1      false (0)
16  COCC(=O)OC1CCn2c1nc1c2C(=O)C(C)=C(NC(C)=O)C1=O (configuration not stated)      false (0)
17  O=c1c(C(c2ccc3ccccc3c2)c2c(O)oc3cc(O)ccc3c2=O)c(O)oc2cc(O)ccc12      false (0)
18  CN1CCC2(CC1)C(=O)N(N1CCCCCC1)C(=O)N2c1ccccc1      false (0)
19  CCOC(=O)Nc1ccc(S(=O)(=O)Nc2ccc(Br)cc2)cc1      false (0)
20  COc1cc2c(NCCN(C)C)nc3c4cc5c(cc4ccc3c2cc1OC)OCO5      false (0)
21  CCC(=O)c1ccc2[nH]c3c(C)c4c(O)cc(C)nc4c(C)c3c2c1      false (0)
22                  c1ccc2c(Nc3ncco3)cccc2c1      false (0)
